Field: EC50 of binding to hGremlin-his. Provide a value for each of the molecules that follow.
# targetUnderTest: T1, Human GREM1 (Homo sapiens, UniProt O60565)
# T1 construct: His; purchased ACRO
# T1 sequence (O60565 25-184): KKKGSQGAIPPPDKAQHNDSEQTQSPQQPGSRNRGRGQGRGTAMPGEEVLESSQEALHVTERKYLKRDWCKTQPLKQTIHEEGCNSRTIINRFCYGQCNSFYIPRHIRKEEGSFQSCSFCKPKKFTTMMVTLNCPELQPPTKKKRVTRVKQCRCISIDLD
# assay: Binding affinity to human GREM1 through ELISA
# conditionLabel: Table 17
# Experimental: A transparent polystyrene culture plate (BEAVER) was coated with a high pH coating buffer containing 0.5 μg/ml hGREM1 (ACRO) and mouse gremlin (R&D) at 100 μl/well at 4° C. overnight. Then, the culture plate was washed once with PBS and 0.1% of Tween 20 (Sigma) on an automatic culture plate washer. […] The culture plate was read on a Multiscan FC microplate reader (Thermo Scientific) at 450 nM. […]
Reply numerically in ng/mL, unit not repeated.

Record summary for Hu14E3_HaLb (antibody, human IgG1, V domains shown, also called humanized 14E3) VH: QVQLVQSGSELKKPGASVKVSCKASGYTFTTYGMAWMRQAPGQGLEWMGWINTLSGEPTYADDFKGRFVFSLDTSVSTAYLQISSLKAEDTAVYYCAREPMDYWGQGTMVTVSS VL: DVVMTQSPLSLPVTLGQPASISCKSSQSLLDSDGKTYLSWLQQRPGQSPRRLISLVSKLDSGVPDRFSGSGSGTDFTLKISRVEAEDVGVYYCWQGAHFPLTFGQGTKLEIK : reported EC50 of binding to hGremlin-his = 5.6

Form: molecule = Hu14E3_HcLb (antibody, human IgG1, V domains shown, also called humanized 14E3) VH: QIQLVQSGSELKKPGASVKVSCKASGSTFTTYGMAWMKQAPGQGLTWMGWINTLSGEPTYADDFKGRFAFSLDTSVSTAYLQISSLKAEDTAVYYCAREPMDYWGQGTMVTVSS VL: DVVMTQSPLSLPVTLGQPASISCKSSQSLLDSDGKTYLSWLQQRPGQSPRRLISLVSKLDSGVPDRFSGSGSGTDFTLKISRVEAEDVGVYYCWQGAHFPLTFGQGTKLEIK ; EC50 of binding to hGremlin-his = 6.1

Just so you know, measured EC50 of binding to hGremlin-his for Hu14E3_HbLb (antibody, human IgG1, V domains shown, also called humanized 14E3) VH: QIQLVQSGSELKKPGASVKVSCKASGYTFTTYGMAWMRQAPGQGLEWMGWINTLSGEPTYADDFKGRFAFSLDTSVSTAYLQISSLKAEDTAVYYCAREPMDYWGQGTMVTVSS VL: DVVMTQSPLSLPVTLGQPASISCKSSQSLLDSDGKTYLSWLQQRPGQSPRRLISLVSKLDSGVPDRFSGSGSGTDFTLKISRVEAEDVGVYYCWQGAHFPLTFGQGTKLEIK came out at 6.2

For record Hu14E3_HcLa (antibody, human IgG1, V domains shown, also called humanized 14E3) VH: QIQLVQSGSELKKPGASVKVSCKASGSTFTTYGMAWMKQAPGQGLTWMGWINTLSGEPTYADDFKGRFAFSLDTSVSTAYLQISSLKAEDTAVYYCAREPMDYWGQGTMVTVSS VL: DVVMTQSPLSLPVTLGQPASISCKSSQSLLDSDGKTYLSWLQQRPGQSPRRLIYLVSKLDSGVPDRFSGSGSGTDFTLKISRVEAEDVGVYYCWQGAHFPLTFGQGTKLEIK the listed EC50 of binding to hGremlin-his is 6.6
